Reference source for all entries: ChEMBL document CHEMBL1143555

target.or.system: Human immunodeficiency virus type 1 protease (Human immunodeficiency virus 1)
procedure.text: Inhibitory concentration against human immunodeficiency virus-1 protease
Please note: IC50 exactly at 2000 nM is not met. Only values below 2000 nM get met.

Answered examples (3):
CCC(C)[C@@H](NC(=O)C(NC(=O)CCCCCCCCCCCCCCC(=O)N[C@H](CC(=O)N[C@@H](Cc1ccccc1)C(=O)O)C(N)=O)c1ccccc1)C(=O)N[C@@H](Cc1ccccc1)C(N)=O (stereo not given in full); not met
CC[C@H](C)[C@@H](NC(=O)[C@@H](NC(=O)CCCCCCCCCCCCCCC(=O)N[C@H](CC(=O)N[C@@H](Cc1ccccc1)C(=O)O)C(N)=O)[C@H](C)O)C(=O)N[C@@H](Cc1cc(I)c(O)c(I)c1)C(N)=O; not met
CCC(C)[C@@H](NC(=O)[C@H](C(C)O)N(C)C(=O)CCCCCCCCCCCCCCC(=O)NC(Cc1ccc(OP(=O)(O)O)cc1)C(=O)N[C@@H](Cc1ccccc1)C(=O)O)C(=O)NC(CO)C(N)=O (stereo not given in full); not met

[in] Determine if CCC(C)[C@@H](NC(=O)C(Cc1ccc(F)c(F)c1)NC(=O)CCCCCCCCCCCCCCC(=O)N[C@H](CC(=O)N[C@@H](Cc1ccccc1)C(=O)O)C(N)=O)C(=O)N[C@@H](Cc1ccccc1)C(N)=O (stereo not given in full) shows IC50 strictly lower than 2000 nM.
[out] met

[in] Determine if CC[C@H](C)[C@@H](NC(=O)[C@@H](NC(=O)CCCCCCCCCCCCCCC(=O)N[C@H](CC(=O)N[C@@H](Cc1ccccc1)C(=O)O)C(N)=O)[C@H](C)O)C(=O)N[C@H](Cc1ccc(C#N)cc1)C(N)=O shows IC50 strictly lower than 2000 nM.
[out] met

[in] Determine if CC[C@H](C)[C@@H](NC(=O)[C@@H](NC(=O)CCCCCCCCCCCCCCC(=O)N[C@H](CC(=O)N[C@@H](Cc1ccccc1)C(=O)O)C(N)=O)[C@H](C)O)C(=O)N[C@H](Cc1ccc(Br)cc1)C(N)=O shows IC50 strictly lower than 2000 nM.
[out] met

[in] Determine if CCC(C)[C@@H](NC(=O)[C@@H](NC(=O)CCCCCCCCCCCCCCC(=O)N[C@H](CC(=O)N[C@@H](Cc1ccccc1)C(=O)O)C(N)=O)C(C)O)C(=O)N[C@@H](Cc1ccccc1)C(N)=O (stereo not given in full) shows IC50 strictly lower than 2000 nM.
[out] met

[in] Determine if CC[C@H](C)[C@@H](NC(=O)[C@@H](NC(=O)CCCCCCCCCCCCCCC(=O)N[C@H](CC(=O)N[C@@H](Cc1ccccc1)C(=O)O)C(N)=O)[C@H](C)O)C(=O)N[C@@H](Cc1ccc(F)c(F)c1)C(N)=O shows IC50 strictly lower than 2000 nM.
[out] not met

[in] Determine if CC[C@H](C)[C@@H](NC(=O)[C@@H](NC(=O)CCCCCCCCCCCCCCC(=O)N[C@H](CC(=O)N[C@@H](Cc1ccccc1)C(=O)O)C(N)=O)[C@H](C)O)C(=O)NC(CCc1ccccc1)C(N)=O (stereo not given in full) shows IC50 strictly lower than 2000 nM.
[out] met

[in] Determine if CC[C@H](C)[C@@H](NC(=O)[C@@H](NC(=O)CCCCCCCCCCCCCCC(=O)N[C@H](CC(=O)N[C@@H](Cc1ccccc1)C(=O)O)C(N)=O)[C@H](C)O)C(=O)N[C@@H](Cc1ccc([N+](=O)[O-])cc1)C(N)=O shows IC50 strictly lower than 2000 nM.
[out] not met
